Test system: CP265
Test: qHTS profiling for inhibitors of Plasmodium falciparum proliferation (AID 504749); also: nearly all actives have a fitted effect of over 60% in size
Conditions: P. falciparum in erythrocytes, SYBR Green DNA, 72 h; series mostly up to 28.7 µM
Inconclusive results are not listed. The source made the active and inactive calls. Calls follow the shape of the dose curve; as a rule, active = well fitted inhibition curve with a large enough effect; inconclusive = small, poorly fitted or top-dose-only effect; inactive = flat fitted curve, though single readings scatter.
Select the correct class. Options are T = active, F = inactive and nothing else.

Observe how each entry below is paired with its result.
compound=C[C@H](CCCC(C)(C)O)[C@H]1CC[C@H]2[C@@H]3CC=C4C[C@@H](O)CC[C@]4(C)[C@H]3CC[C@]12C class=F
compound=CNC(=O)OCc1cccc(COC(=O)NC)n1 class=F
compound=Cc1ncc(C[n+]2csc(CCO)c2C)c(N)n1 class=F

Recorded test call requested for N[C@H](CC(=O)O)C(=O)O
F

Test call for this compound, please: CCOc1ccc(NC(=S)Nc2ccc(OCC)cc2)cc1
F

Hi team, can someone confirm the assay call for O=C(O)COc1ccc(CCNS(=O)(=O)c2ccccc2)s1 ?
F

Please indicate how the test categorized CC1C(=O)CC2C3(C)CCC2(C(C)C(=O)O)C(=O)C13 (stereo unspecified) .
F

In this assay, the call recorded for O=C(O)CC/C=C\CC[C@@H]1[C@@H](N2CCCCC2)[C@@H](O)C[C@@H]1OCc1ccc(-c2ccccc2)cc1 was what?
F

Per the assay record, what outcome was assigned to CCOC(=O)c1cc(-c2ccccc2)nc2ccc(C)cc12 ?
F

So what was the verdict on CCOC(=O)c1c[nH]c2cc(OCC(C)C)c(OCC(C)C)cc2c1=O in this test?
T

Hi, sorry to bother you, what did the test record for NC(=O)[C@@H]1CCCN1C(=O)[C@H](Cc1cnc[nH]1)NC(=O)[C@@H]1CCC(=O)N1 ?
F

====

Test system: PAD
Assay: qHTS profiling for inhibitors of Plasmodium falciparum proliferation (AID 504749); also: nearly all actives have a fitted effect of over 60% in size
Settings: P. falciparum in erythrocytes, SYBR Green DNA, 72 h; series mostly up to 28.7 µM
Inconclusive results are not listed. Activity calls are given as the source filed them. The call rests on the fitted dose curve; in most records, active means well fitted inhibition curve with a large enough effect; inconclusive means small, poorly fitted or top-dose-only effect; inactive means flat fitted curve, though single readings scatter.
Write down one outcome, taken from active, inactive

Solved cases (5 shown):
molecule="NC(N)=NCC1COc2ccccc2O1 (configuration not stated)" class=inactive
molecule="C=C1C(CCl)(CCl)C2(Cl)C(Cl)C(Cl)C1(Cl)C2(Cl)Cl (configuration not stated)" class=active
molecule=CCOC(=O)c1c[nH]c2cc(OCC(C)C)c(OCC(C)C)cc2c1=O class=active
molecule="CC(C)NCC(O)COc1ccccc1-n1cccc1 (configuration not stated)" class=inactive
molecule=O=P(O)(O)OC[C@H](O)CO class=inactive

Just curious, what result did Cc1cccc(C)c1NC(=O)C1CCCCN1C (configuration not stated) get here?
inactive

Status in this test for Cc1cc(C(=O)NCCc2ccc(S(=O)(=O)NC(=O)NN3CCCCCC3)cc2)no1 ?
inactive

====

Tested on: CP297
Experiment: qHTS profiling for inhibitors of Plasmodium falciparum proliferation (AID 504749); also: nearly all actives have a fitted effect of over 60% in size
Conditions: P. falciparum in erythrocytes, SYBR Green DNA, 72 h; series mostly up to 28.7 µM
Inconclusive results are not listed. Calls of active or inactive are those of the source. Calls follow the shape of the dose curve; as a rule, active = well fitted inhibition curve with a large enough effect; inconclusive = small, poorly fitted or top-dose-only effect; inactive = flat fitted curve, though single readings scatter.
Log the outcome using a class from T = active, F = inactive

Check out these entries, answers already filled in.
molecule=O=S(=O)(O)CCCS(=O)(=O)O class=F
molecule=CCCc1ccc(C(=O)O)cc1 class=F
molecule=CC(C)(C)CC(C)(C)c1ccc(OCCO)cc1 class=F
molecule=CNC(=O)c1c(I)c(C(=O)NCC(=O)Nc2c(I)c(C(=O)O)c(I)c(C(=O)NCCO)c2I)c(I)c(N(C)C(C)=O)c1I class=F

GET /call?item= OC[C@H]1O[C@@](CO)(O[C@H]2O[C@H](CO)[C@@H](O)[C@H](O)[C@H]2O)[C@@H](O)[C@@H]1O returns the recorded outcome of this test.
F

GET /call?item= C[C@H](CCCC(C)(C)O)[C@H]1CC[C@H]2[C@@H]3CC=C4C[C@@H](O)CC[C@]4(C)[C@H]3CC[C@]12C returns the recorded outcome of this test.
F

// outcome(item) with item = CC1=CC(=C(c2ccc(N)cc2)c2ccc(N)cc2)C=CC1=N
T
